target: Mineralocorticoid receptor (Rattus norvegicus) (UniProt P22199); assay: Ratio of [3H]aldosterone binding with 8*10e-8 M aldosterone to [3H]aldosterone binding with 8*10e-8 M competitor at Mineralocorticoid receptor
Sequence (P22199 whole entry): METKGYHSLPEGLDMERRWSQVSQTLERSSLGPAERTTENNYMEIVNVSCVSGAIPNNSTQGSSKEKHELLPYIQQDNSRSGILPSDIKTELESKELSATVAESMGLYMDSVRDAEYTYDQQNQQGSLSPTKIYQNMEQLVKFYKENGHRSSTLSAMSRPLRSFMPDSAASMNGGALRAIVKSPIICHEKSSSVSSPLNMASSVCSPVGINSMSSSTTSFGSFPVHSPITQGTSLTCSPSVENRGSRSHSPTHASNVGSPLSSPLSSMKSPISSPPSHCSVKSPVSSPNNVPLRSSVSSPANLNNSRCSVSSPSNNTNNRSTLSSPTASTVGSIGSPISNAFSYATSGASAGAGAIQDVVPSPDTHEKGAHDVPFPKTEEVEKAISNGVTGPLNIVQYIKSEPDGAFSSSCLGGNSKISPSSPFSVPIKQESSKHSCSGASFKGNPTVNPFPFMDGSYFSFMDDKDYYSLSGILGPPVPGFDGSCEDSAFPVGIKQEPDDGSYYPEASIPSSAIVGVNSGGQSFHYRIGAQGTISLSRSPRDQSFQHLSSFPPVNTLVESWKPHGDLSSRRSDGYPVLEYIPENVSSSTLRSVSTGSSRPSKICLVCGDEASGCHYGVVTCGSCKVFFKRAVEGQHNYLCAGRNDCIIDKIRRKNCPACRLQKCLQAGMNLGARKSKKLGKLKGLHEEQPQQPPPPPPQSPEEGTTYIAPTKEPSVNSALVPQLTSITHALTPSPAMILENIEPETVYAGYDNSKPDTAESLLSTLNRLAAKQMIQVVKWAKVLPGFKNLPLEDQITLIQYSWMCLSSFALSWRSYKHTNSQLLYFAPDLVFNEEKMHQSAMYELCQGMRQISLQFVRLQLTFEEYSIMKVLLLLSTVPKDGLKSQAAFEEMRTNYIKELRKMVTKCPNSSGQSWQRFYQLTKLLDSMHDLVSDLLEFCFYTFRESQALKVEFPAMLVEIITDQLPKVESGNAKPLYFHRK
Collected Relative binding affinity values appear next to each entry.
ASSAY_ENDPOINT: Relative binding affinity

• CC12CCC(=O)C=C1[C@@H]1C[C@@H]1C1C2CCC2(C)C1CCC21CCC(=O)O1 (some centres undefined) = 0.25
• C[C@]12CCC(=O)C=C1CC[C@@H]1[C@@H]2[C@@H](O)C[C@]2(C=O)[C@@H](C(=O)CO)CC[C@@H]12 = 1
• CC12C=CC(=O)C=C1[C@H]1C[C@H]1C1C2CCC2(C)C1CCC21CCC(=O)O1 (some centres undefined) = 0.15
• C[C@]12CCC(=O)C=C1C=C[C@@H]1[C@@H]2CC[C@@]2(C)[C@H]1CC[C@@]21CCC(=O)O1 = 0.13

The measurements presented in this section are drawn from ChEMBL document CHEMBL1121702.
